- study_system: Bcl-xL, Q07817
- Sequence (Q07817 1-209): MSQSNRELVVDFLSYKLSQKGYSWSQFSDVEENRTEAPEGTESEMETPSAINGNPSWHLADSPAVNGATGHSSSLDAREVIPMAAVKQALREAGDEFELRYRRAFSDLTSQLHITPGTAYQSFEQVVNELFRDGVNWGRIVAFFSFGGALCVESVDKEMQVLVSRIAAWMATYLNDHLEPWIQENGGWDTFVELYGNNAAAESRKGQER
- assay_name: peptide SPOT array, c-Myc-tagged receptor at 1 uM or 100 nM, anti-c-Myc-Cy3
readout_label: SPOT signal as a fraction of Bim BH3's signal on the same receptor and array

Field: example entries. Status: answers known.
QFEIEKSCELLFQMAESVDYDYDVQD [DHX40] | 0.02
SSTMGQVGRQLAIIGDDINRRYDSEF [BAK1] | 0.4
CGDLASLSIDDWTLGEEVDGRRLVVA [BIRC6] | 0.02

Problem: Fill blank: measured SPOT signal as a fraction of Bim BH3's signal on the same receptor and array of the binder FSKREKLVEIDRNIGDERTMVFVETK [DDX4] is ____.
Solution: 0.06

Problem: And for DTIFHRAAVRLRDLLGAILRHARRQA [BRPF3] ?
Solution: 0.55

Problem: And for LWAAQRYGREDRRMSDEFVDSFKKGL [BAD] ?
Solution: 0.53

Problem: And for YIVLGLRKTTLQKVGKEVAELVGRVG [NLRX1] ?
Solution: 0.36

Problem: And for CLKRCRSAQVLHLYGATYSADGEDRA [NLRP12] ?
Solution: 0.19

Problem: And for NKSLTTLGLVDSSLADQAAGKGKSKF [KIF13A] ?
Solution: 0.29

Problem: And for FQQTISCPEGLRLVGSEVGDRTLPGW [IRF3] ?
Solution: 0.03
